# EXPERIMENTAL_SYSTEM: RIPK1 kinase domain (Homo sapiens, UniProt Q13546)
# Sequence (Q13546 17-289 limits assumed): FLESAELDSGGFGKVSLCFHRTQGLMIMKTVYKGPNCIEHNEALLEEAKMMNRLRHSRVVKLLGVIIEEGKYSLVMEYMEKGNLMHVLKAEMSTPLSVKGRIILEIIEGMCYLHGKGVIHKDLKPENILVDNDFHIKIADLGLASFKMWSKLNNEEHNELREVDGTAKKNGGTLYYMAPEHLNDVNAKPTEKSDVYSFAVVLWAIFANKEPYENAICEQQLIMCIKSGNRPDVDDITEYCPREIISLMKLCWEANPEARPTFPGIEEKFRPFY
pKd: −log10 of the molar value.
Here the recorded pKd is given for each entry.

Use the examples below as a reference point.
Nc1nccnc1C(=O)O[C@@H](C(=O)Nc1ccc(F)cc1)c1ccccc1    < 4.52
Nc1nccnc1C(=O)O[C@H](C(=O)Nc1ccc(F)cc1)c1ccccc1    < 4.52
COc1nccnc1NS(=O)(=O)c1ccc(NC(=O)/C=C/c2ccc([N+](=O)[O-])s2)cc1 [NSA, Necrosulfonamide, reference compound]    < 4.52
CN(c1ccc(N)cc1)c1ccnc(Nc2cccc(S(N)(=O)=O)c2)n1    < 5.00

Turning now to a further compound:
Reading of pKd for CC(=O)Nc1ccc(N(C)c2ccnc(Nc3cccc(S(N)(=O)=O)c3)n2)cc1 with RIPK1 kinase domain (Homo sapiens, UniProt Q13546): < 5.00

These data points were gathered from paper PMC5104457.
